- assay.system: T1, human CCR8 (human, UniProt P51685 1-355)
- T1 construct: whole, on cells; In the β-arrestin assay CCR8 is fused to the ProLink (PK) tag; also called hCCR8; CHO-K1-human CCR8
- T1 sequence (P51685 whole entry, the tested form may be a part): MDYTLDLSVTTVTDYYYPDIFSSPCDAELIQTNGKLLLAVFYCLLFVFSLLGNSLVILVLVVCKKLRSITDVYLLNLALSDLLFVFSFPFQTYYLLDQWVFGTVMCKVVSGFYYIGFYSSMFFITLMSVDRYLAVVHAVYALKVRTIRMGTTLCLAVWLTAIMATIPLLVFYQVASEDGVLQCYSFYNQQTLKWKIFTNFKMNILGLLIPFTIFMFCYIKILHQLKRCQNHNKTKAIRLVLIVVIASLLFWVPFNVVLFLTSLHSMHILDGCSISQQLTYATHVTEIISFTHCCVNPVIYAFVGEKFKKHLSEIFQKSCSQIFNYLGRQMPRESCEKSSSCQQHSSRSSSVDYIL
- measurement.notes: FACS on CHO-K1-human CCR8 cells
- Protocol: The binding affinities of purified antibodies were determined on human CCR8 and cynomolgus CCR8 over-expressing cells. […] Data was plotted as the logarithm of antibody concentration versus mean fluorescence signals. EC₅₀ values were calculated in GraphPad Prism 8 (GraphPad Software) using a log(agonist) vs. response-Variable slope (4 parameters) curve fit. […]
// label = 1 if Max MFI is not less than 50000 MFI, otherwise 0

binder	category
234G9C12 (antibody, V domains shown, Murine hybridoma antibody; also called 234G4C12) VH: DVQLQESGPGLVKPSQSLSLTCSVTGYSITSGYYWNWIRQFPGNKLEWMGYTSYDGSNNYNPSFKNRISITRDISKNQFFLKLNSVTTEDTATYYCARQIGLRRGAMDHWGQGTSVTVSS VL: DIQMTQSSSYLSVSLGGRVTITCKASDHINNWLAWYQQKPGNAPRLLISGSTSLRAGVASRFSGSGSGKDYTLTITSLQTEDVATYYCQQYWGIPFTFGGGTKLEIK	1
164G10D6 (antibody, V domains shown, Murine hybridoma antibody; also called 164G10C6) VH: EVQLVESGGGLVQPKGSLKLSCAASGFTFNTYAMNWVRQAPGKGLEWVARIRSKSNFYATYYADSVKDRFTISRDDSQDMLYLQMNILKTEDTAIYYCVRGRDYGSSYAMDYWGQGTSVTVSS VL: DIVMTQAAPSVPVTPGESVSISCRSSKSLLHSNGNTYLYWFLQRPGQSPQLLIYRMSNLASGVPDRFSGSGSGTAFTLRISRVEAEDVGVYYCMQHLEYPLTFGAGTKLELK	1
273H2G6 (antibody, V domains shown, Murine hybridoma antibody) VH: DVQLQESGPGLVKPSQSLSLTCSVTGYSITSGYYWNWIRQFPGNKLEWMGYISYDGSNNYNPSLKNRISITRDISKNQFFLKLNSVTTEDTATYYCARQVGLRRGAMDYWGQGTSVTVSS VL: DIQMTQSSSYLSVSLGGRVTITCKASDHINNWLAWYQQKPGNAPRLLISGSTSLKAGVASRFSGSGSGKDYTLSITSLQTEDVATYYCQQYWSIPYTFGGGTKLEIK	0
191E12H8 (antibody, V domains shown, Murine hybridoma antibody) VH: DVQLQESGPGLVKPSQSLSLTCSVTGYSITSGYYWNWIRQFPGNKLEWMGYISYDGSNNYNPSLKNRISITRDISKNQFFLKLNSVTTEDTATYYCARQIGLRRGAMDYWGQGTSVTVSS VL: DIQMTQSSSYLSVSLGGRVTITCKASDHINTWLAWYQQKPGNAPRLLISGSTSLKAGVASRFSGSGSGKDYTLTITSLQTEDVATYYCQQYWGIPFTFGGGTKLEIK	0
